FYI, the data here is from patent US8962634B2.

- Test system: GMK cells
- assay-comment: Tolerance in the cell culture: cytotoxicity in GMK cells (CC50)
- Format: cell-based
- test-settings: 72 h incubation
measured-attribute: 50% cytotoxic concentration in GMK cells

Looking for the measured 50% cytotoxic concentration in GMK cells of Nc1nc(-c2ccccc2)nc2[nH]nc(Nc3ccc(Br)cc3)c12 [Example 5] , can you help? 42.9 µg/mL

Looking for the measured 50% cytotoxic concentration in GMK cells of Nc1nc(-c2ccccc2)nc2[nH]nc(Nc3ccc(F)cc3)c12 [Example 6] , can you help? >50 µg/mL

Looking for the measured 50% cytotoxic concentration in GMK cells of Nc1nc(-c2ccccc2)nc2[nH]nc(Nc3cccc(F)c3)c12 [Example 2] , can you help? >50 µg/mL

Looking for the measured 50% cytotoxic concentration in GMK cells of Nc1nc(-c2ccccc2)nc2[nH]nc(Nc3ccccc3)c12 [Example 1] , can you help? >50 µg/mL

Looking for the measured 50% cytotoxic concentration in GMK cells of Cc1ccc(Nc2n[nH]c3nc(-c4ccccc4)nc(N)c23)cc1 [Example 4] , can you help? >50 µg/mL

###

- Test system: human rhinovirus 2 (HRV2)
- assay-comment: Cytopathic effect (cpE)-inhibition test in HeLa cells, HRV2
- Assay type: cell-based
- test-settings: Rhinovirus A, HRV2; cpE inhibition, HeLa cells, 72 h after infection; read-out: 50% inhibition concentration HRV2
I'd appreciate it if you marked entries True when IC50 is lower than 1 µg/mL and False when it is not.

Criterion: IC50 strictly below 1 µg/mL. Is it met by `Nc1nc(-c2ccccc2)nc2[nH]nc(Nc3ccc(Br)cc3)c12` ? True

Criterion: IC50 strictly below 1 µg/mL. Is it met by `Nc1nc(-c2ccccc2)nc2[nH]nc(Nc3cccc(F)c3)c12` ? False

Criterion: IC50 strictly below 1 µg/mL. Is it met by `Cc1cccc(Nc2n[nH]c3nc(-c4ccccc4)nc(N)c23)c1` ? False

Criterion: IC50 strictly below 1 µg/mL. Is it met by `Cc1ccc(Nc2n[nH]c3nc(-c4ccccc4)nc(N)c23)cc1` ? False

Criterion: IC50 strictly below 1 µg/mL. Is it met by `Nc1nc(-c2ccccc2)nc2[nH]nc(Nc3ccc(F)cc3)c12` ? True

###

- assay-comment: Tolerance in the cell culture: cytotoxicity in HeLa cells (CC50)
- Type: cell-based
- test-settings: human, repeated per virus line of the plaque reduction table, read-out: 50% zytotoxic concentration in HeLa cells (CC50)
measured-attribute: CC50 at 72 h (µg/mL)
Give your result in µg/mL as a bare value.

Looking for the measured CC50 at 72 h of `Nc1nc(-c2ccccc2)nc2[nH]nc(Nc3ccccc3)c12` , can you help? 39.6

###

- Test system: human rhinovirus 8 (HRV8)
- assay-comment: Cytopathic effect (cpE)-inhibition test in HeLa cells, HRV8
- Format: cell-based
- test-settings: Rhinovirus A, HRV8; cpE inhibition, HeLa cells, 72 h after infection; read-out: 50% inhibition concentration HRV8
measured-attribute: IC50 (µg/mL)
Give your result in µg/mL as a bare value.

Looking for the measured IC50 of Cc1cccc(Nc2n[nH]c3nc(-c4ccccc4)nc(N)c23)c1 [Example 3] , can you help? 1

Looking for the measured IC50 of Nc1nc(-c2ccccc2)nc2[nH]nc(Nc3ccc(Br)cc3)c12 [Example 5] , can you help? 1

Looking for the measured IC50 of Nc1nc(-c2ccccc2)nc2[nH]nc(Nc3cccc(F)c3)c12 [Example 2] , can you help? 4.6

Looking for the measured IC50 of Nc1nc(-c2ccccc2)nc2[nH]nc(Nc3ccc(F)cc3)c12 [Example 6] , can you help? 2

Looking for the measured IC50 of Cc1ccc(Nc2n[nH]c3nc(-c4ccccc4)nc(N)c23)cc1 [Example 4] , can you help? 2.2

###

- Test system: HeLa cells
- assay-comment: Tolerance in the cell culture: cytotoxicity in HeLa cells (CC50)
- Assay type: cell-based
- test-settings: 72 h incubation
I'd appreciate it if you marked entries MET when 50% cytotoxic concentration in HeLa cells is lower than 40 µg/mL and NOT MET when it is not.

Criterion: 50% cytotoxic concentration in HeLa cells strictly below 40 µg/mL. Is it met by `Nc1nc(-c2ccccc2)nc2[nH]nc(Nc3ccc(F)cc3)c12` ? NOT MET

Criterion: 50% cytotoxic concentration in HeLa cells strictly below 40 µg/mL. Is it met by `Nc1nc(-c2ccccc2)nc2[nH]nc(Nc3ccc(Br)cc3)c12` ? MET

Criterion: 50% cytotoxic concentration in HeLa cells strictly below 40 µg/mL. Is it met by `Cc1ccc(Nc2n[nH]c3nc(-c4ccccc4)nc(N)c23)cc1` ? NOT MET

Criterion: 50% cytotoxic concentration in HeLa cells strictly below 40 µg/mL. Is it met by `Cc1cccc(Nc2n[nH]c3nc(-c4ccccc4)nc(N)c23)c1` ? MET

Criterion: 50% cytotoxic concentration in HeLa cells strictly below 40 µg/mL. Is it met by `Nc1nc(-c2ccccc2)nc2[nH]nc(Nc3cccc(F)c3)c12` ? NOT MET
